- Read-out: Interleukin 6 (IL6), IL6 (gene 3569)
- assay.explanation: LTEA_HepaRG_IL6: Life Technologies and Expression Analysis (LTEA) Assay for Interleukin 6 (IL6) using HepaRG (AID 2283509)
- setup.conditions: mRNA level, 48 h; actives raise or lower the signal
Active and inactive are the calls of the source. How the source made its calls: active means hit-call score of the fitted dose curve at least 0.9, where 1 is the maximum; inactive means score below 0.9.
Possible outcomes: active, inactive

given.smiles | class.name
CC(=O)Nc1ccc(O)cc1 | inactive
CN(C)CCOC(c1ccccc1)c1ccccc1 | inactive
CN(Cc1cnc2nc(N)nc(N)c2n1)c1ccc(C(=O)N[C@@H](CCC(=O)O)C(=O)O)cc1 | inactive
CCCCc1oc2ccccc2c1C(=O)c1cc(I)c(OCCN(CC)CC)c(I)c1 | active
O=C(CCCN1CCC(O)(c2ccc(Cl)cc2)CC1)c1ccc(F)cc1 | active
O=C(c1ccccc1)c1ccccc1 | inactive
